The measured values listed here are drawn from ChEMBL document CHEMBL3997846.

ASSAY_NOTES: Selectivity index, ratio of IC50 for rat L6 cells to IC50 for bloodstream forms of Trypanosoma brucei rhodesiense STIB900 trypomastigotes
Type: toxicity
CONDITION_DESCRIPTION: read-out: Ratio IC50
VALUE_KIND: selectivity ratio

Examples with answers:
INSERT INTO assay_data (chemical_structure, value_kind, obs_value) VALUES
  ('CC(=O)O[C@@H]1[C@H](OC(C)=O)[C@@H](CN=[N+]=[N-])O[C@H]1n1cnc2c(N)nc(F)nc21', 'selectivity ratio', 0.8),
  ('[N-]=[N+]=NC[C@H]1O[C@@H](n2cnc3c(N)nc(Cl)nc32)[C@H](O)[C@@H]1O', 'selectivity ratio', 3),
  ('CSC[C@H]1O[C@@H](n2cnc3c(N(C)N=O)nc(F)nc32)[C@H](O)[C@@H]1O', 'selectivity ratio', 2),
  ('CC(=O)O[C@@H]1[C@H](OC(C)=O)[C@@H](CN2C(=O)c3ccccc3C2=O)O[C@H]1n1cnc2c(N)nc(Cl)nc21', 'selectivity ratio', 0.9),
  ('CNc1ncnc2c1ncn2[C@@H]1O[C@H](C)[C@@H](O)[C@H]1O', 'selectivity ratio', 1),
  ('CC(=O)O[C@@H]1[C@H](OC(C)=O)[C@@H](CS(C)(=O)=O)O[C@H]1n1cnc2c(N)nc(Cl)nc21', 'selectivity ratio', 8);

Q. I would be grateful if you could share the reported selectivity ratio for `Nc1nc(Cl)c2ccn([C@@H]3O[C@H](CO)[C@@H](O)[C@H]3O)c2n1` .
A. 1250

Q. Can you share its selectivity ratio? I mean this molecule: `CNc1nc(N)nc2c1ncn2[C@@H]1O[C@H](CSC)[C@@H](O)[C@H]1O`
A. 0.6
